Reference for the values: paper PMC12028158

System: NCI/ADR-RES
test name: NCI60 five-dose screen
Format: cell-based
settings: Homo sapiens
metric: GI50 (µM)
Answers are plain numbers, in µM.

The cases that follow already have their GI50 on record.
compound	target desc	GI50 / µM
CC[C@]12C=CCN3CC[C@@]4(c5ccc(OC)cc5N(C)[C@H]4[C@@](O)(C(=O)OC)[C@@H]1OC(=O)CCC[P+](C1CCCCC1)(C1CCCCC1)C1CCCCC1)[C@@H]32	NCI/ADR-RES	35.6
CC[C@]12C=CCN3CC[C@@]4(c5ccc(OC)cc5N(C)[C@H]4[C@@](O)(C(=O)OC)[C@@H]1OC(=O)CCCC[P+](C1CCCCC1)(C1CCCCC1)C1CCCCC1)[C@@H]32 [10d]	NCI/ADR-RES	65.5
CC[C@]12C=CCN3CC[C@@]4(c5ccc(OC)cc5N(C)[C@H]4[C@@](O)(C(=O)OC)[C@@H]1OC(=O)CCC[P+](c1ccccc1)(c1ccccc1)c1ccccc1OC)[C@@H]32	NCI/ADR-RES	26.1
CCC12C=CCN3CCC4(c5ccc(OC)cc5N(C)C4C(O)(C(=O)OC)C1OC(=O)CCC[P+](c1ccc(C)cc1)(c1ccc(C)cc1)c1ccc(C)cc1)C32 (centres unmarked)	NCI/ADR-RES	8.87
CC[C@]12C=CCN3CC[C@@]4(c5ccc(OC)cc5N(C)[C@H]4[C@@](O)(C(=O)OC)[C@@H]1OC(=O)CCCC[P+](c1ccc(OC)cc1)(c1ccc(OC)cc1)c1ccc(OC)cc1)[C@@H]32 [10b]	NCI/ADR-RES	20.5

What GI50 value was documented for this compound, CC[C@]12C=CCN3CC[C@@]4(c5ccc(OC)cc5N(C)[C@H]4[C@@](O)(C(=O)OC)[C@@H]1OC(=O)CCCC[P+](c1ccc(C)cc1)(c1ccc(C)cc1)c1ccc(C)cc1)[C@@H]32 [10a] ?
12

----------
Test system: Non-small Cell Lung Cancer panel
test name: NCI60 five-dose screen, panel mean
Type: cell-based
settings: Homo sapiens, read-out: GI50 Mean
metric: GI50
Give your result as the value with the unit written after it.

The cases that follow already have their GI50 on record.
molecule	GI50
CC[C@]12C=CCN3CC[C@@]4(c5ccc(OC)cc5N(C)[C@H]4[C@@](O)(C(=O)OC)[C@@H]1OC(=O)CCCC[P+](c1ccccc1)(c1ccccc1)c1ccccc1)[C@@H]32 [compound 4, reference compound]	1440 nM
CC[C@]12C=CCN3CC[C@@]4(c5ccc(OC)cc5N(C)[C@H]4[C@@](O)(C(=O)OC)[C@@H]1OC(=O)CCCC[P+](c1ccc(C)cc1)(c1ccc(C)cc1)c1ccc(C)cc1)[C@@H]32 [10a]	1070 nM
CC[C@]12C=CCN3CC[C@@]4(c5ccc(OC)cc5N(C)[C@H]4[C@@](O)(C(=O)OC)[C@@H]1OC(=O)CCCC[P+](C1CCCCC1)(C1CCCCC1)C1CCCCC1)[C@@H]32 [10d]	2950 nM

Now for the molecule whose GI50 we want.
Form entry - test system: Non-small Cell Lung Cancer panel; read-out: GI50; molecule: CC[C@]12C=CCN3CC[C@@]4(c5ccc(OC)cc5N(C)[C@H]4[C@@](O)(C(=O)OC)[C@@H]1OC(=O)CCCC[P+](c1ccc(OC)cc1)(c1ccc(OC)cc1)c1ccc(OC)cc1)[C@@H]32 [10b]
1360 nM
